Molecular target: T1, human GPVI protein, soluble extracellular domain (D1 and D2) (human, UniProt Q9HCN6 21-267)
T1 construct: extracellular domain; also called hGPVI; human glycoprotein VI
T1 sequence (looked up): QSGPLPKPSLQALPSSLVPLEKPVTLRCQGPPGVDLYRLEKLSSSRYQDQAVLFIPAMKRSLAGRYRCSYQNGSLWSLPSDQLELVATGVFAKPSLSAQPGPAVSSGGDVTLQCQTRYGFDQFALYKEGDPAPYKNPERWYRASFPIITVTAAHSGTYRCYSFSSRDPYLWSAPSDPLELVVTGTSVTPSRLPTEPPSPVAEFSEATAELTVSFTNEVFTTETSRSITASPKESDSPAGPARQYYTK
Assay: SPR (Biacore 3000), human GPVI immobilised, Fab analyte
Kindly supply the reported koff values for the records listed here.
// return the numeric value with its unit appended

// worked examples, koff included
• humanized anti-GPVI Fab VL1/VH2 (Fab, V domains shown, Recombinant Fab: VH fused to CH1 of human IGHG1 (Q569F4), HC ends in DKTHT; VL fused to human constant kappa (Q502W4); also called VL1 with VH2) VH: QVQLQESGPGLVAPSQSLSITCTVSGFSLTGYGVNWVRQPPSRGLEWLGMIWGDGSTDYQSTLKSRLSISKDNSKSQVFLKMNSLTTDDTARYYCARDLPMDYWGQGTSVTVSS VL: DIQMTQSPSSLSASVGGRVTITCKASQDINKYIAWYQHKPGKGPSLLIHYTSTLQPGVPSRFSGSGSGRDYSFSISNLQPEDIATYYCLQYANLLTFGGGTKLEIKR = 3e-05 s⁻¹
• humanized anti-GPVI Fab VL2/VH2 (Fab, V domains shown, Recombinant Fab: VH fused to CH1 of human IGHG1 (Q569F4), HC ends in DKTHT; VL fused to human constant kappa (Q502W4); also called VL2 with VH2) VH: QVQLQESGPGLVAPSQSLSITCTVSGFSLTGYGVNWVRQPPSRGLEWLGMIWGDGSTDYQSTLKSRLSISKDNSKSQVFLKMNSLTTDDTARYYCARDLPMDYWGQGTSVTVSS VL: DIQMTQSPSSLSASVGGRVTITCKASQDINKYIAWYQHKPGKGPSLLIHYTSTLQPGVPSRFSGSGSGRDYSFSISNLQPEDIATYYCLQYAHLLTFGGGTKLEIKR = 3e-05 s⁻¹
• humanized anti-GPVI Fab VL1/VH3 (Fab, V domains shown, Recombinant Fab: VH fused to CH1 of human IGHG1 (Q569F4), HC ends in DKTHT; VL fused to human constant kappa (Q502W4); also called VL1 with VH3) VH: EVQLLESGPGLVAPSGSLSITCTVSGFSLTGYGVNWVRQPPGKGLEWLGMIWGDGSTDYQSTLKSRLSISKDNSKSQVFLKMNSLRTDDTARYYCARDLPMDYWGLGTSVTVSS VL: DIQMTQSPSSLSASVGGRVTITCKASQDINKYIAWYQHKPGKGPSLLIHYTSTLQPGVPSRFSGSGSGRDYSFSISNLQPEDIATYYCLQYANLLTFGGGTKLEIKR = 2e-05 s⁻¹

Let us move to another entry and its koff.
Challenge: I'd like to know its koff. The binder in question is humanized anti-GPVI Fab VL1/VH1 (Fab, V domains shown, Recombinant Fab: VH fused to CH1 of human IGHG1 (Q569F4), HC ends in DKTHT; VL fused to human constant kappa (Q502W4); also called VL1 with VH1) VH: QVQLQESGPGLVAPSQSLSITCTVSGFSLTGYGVNWVRQPPSRGLEWLGMIWGDGSTDYQSTLKSRLSISKDTSKSQVFLKMNSLTTDDTARYYCARDLPMDYWGQGTSVTVSS VL: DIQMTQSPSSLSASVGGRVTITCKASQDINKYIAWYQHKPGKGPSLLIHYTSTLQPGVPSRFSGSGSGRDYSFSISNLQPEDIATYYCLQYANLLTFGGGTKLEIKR
Response given: 4e-05 s⁻¹
